Data origin, for the record: patent US11066369B2

- TARGET_OF_ASSAY: horseradish peroxidase (HRP) tagged delF508-CFTR (Homo sapiens, UniProt P13569, DEL508-508)
- Construct: expressed in transfected cells
- Sequence (P13569 with tags, fused parts or gaps DEL508-508): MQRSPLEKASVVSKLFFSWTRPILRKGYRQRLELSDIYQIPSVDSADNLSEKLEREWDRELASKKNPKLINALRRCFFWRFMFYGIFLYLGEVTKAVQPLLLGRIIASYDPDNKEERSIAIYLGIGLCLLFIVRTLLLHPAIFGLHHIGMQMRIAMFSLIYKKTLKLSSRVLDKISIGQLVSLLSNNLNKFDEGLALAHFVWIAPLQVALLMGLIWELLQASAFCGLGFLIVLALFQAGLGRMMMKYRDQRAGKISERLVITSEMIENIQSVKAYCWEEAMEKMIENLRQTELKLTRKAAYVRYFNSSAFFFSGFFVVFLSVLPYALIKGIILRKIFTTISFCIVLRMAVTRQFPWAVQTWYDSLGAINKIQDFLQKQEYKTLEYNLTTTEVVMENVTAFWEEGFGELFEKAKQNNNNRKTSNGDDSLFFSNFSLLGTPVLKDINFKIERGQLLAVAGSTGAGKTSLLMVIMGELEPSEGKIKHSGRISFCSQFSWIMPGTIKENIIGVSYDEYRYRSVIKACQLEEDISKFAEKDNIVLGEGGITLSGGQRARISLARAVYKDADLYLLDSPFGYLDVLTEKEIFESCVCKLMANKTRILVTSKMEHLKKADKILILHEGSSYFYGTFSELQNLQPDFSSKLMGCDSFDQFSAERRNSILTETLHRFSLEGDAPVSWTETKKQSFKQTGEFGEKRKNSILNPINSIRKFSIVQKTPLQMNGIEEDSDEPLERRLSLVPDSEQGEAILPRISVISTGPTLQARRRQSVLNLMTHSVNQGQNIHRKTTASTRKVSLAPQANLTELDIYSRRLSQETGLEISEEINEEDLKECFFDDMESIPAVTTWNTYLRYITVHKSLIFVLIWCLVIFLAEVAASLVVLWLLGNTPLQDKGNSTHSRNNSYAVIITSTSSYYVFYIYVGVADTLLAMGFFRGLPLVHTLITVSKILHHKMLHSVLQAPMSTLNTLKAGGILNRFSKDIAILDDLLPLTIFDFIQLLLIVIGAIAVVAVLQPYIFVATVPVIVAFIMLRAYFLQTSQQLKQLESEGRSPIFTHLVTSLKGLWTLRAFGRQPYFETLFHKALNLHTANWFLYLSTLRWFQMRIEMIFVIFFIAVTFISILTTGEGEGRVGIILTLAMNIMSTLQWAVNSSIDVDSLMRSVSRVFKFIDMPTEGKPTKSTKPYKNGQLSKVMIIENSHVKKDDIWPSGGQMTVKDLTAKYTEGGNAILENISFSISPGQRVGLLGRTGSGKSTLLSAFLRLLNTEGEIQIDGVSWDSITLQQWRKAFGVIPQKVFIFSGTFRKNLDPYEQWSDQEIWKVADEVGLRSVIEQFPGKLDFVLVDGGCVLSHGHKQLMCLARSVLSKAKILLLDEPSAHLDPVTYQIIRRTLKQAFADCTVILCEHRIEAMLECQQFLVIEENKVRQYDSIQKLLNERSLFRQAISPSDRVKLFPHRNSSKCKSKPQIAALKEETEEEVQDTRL
- TEST_DESCRIPTION: Measurement of delF508-CFTR-HRP surface expression in CFBE41o- cells
- Type: cell-based
- TEST_SETTINGS: delF508-CFTR-HRP surface expression, CFBE41o- cells; read-out: DelF508-CFTR-HRP EC50
Structures can show the parent of a compound that is named as a salt.
OBSERVED_PROPERTY: EC50 (nM)

Look over these answered cases.
Cc1ccc(F)cc1-c1nc(NS(=O)(=O)c2cccc(N3CCCC(C)(C(=O)O)C3)n2)ccc1C(F)(F)F (stereo not drawn) | 2080
Cc1ccc(F)cc1-c1nc(NS(=O)(=O)c2cccc(N3CC4CCC3CN4)n2)ccc1C(F)(F)F (stereo not drawn) [Example 201, Hydrochloride] | 2620
Cc1cccc(F)c1-c1nc(NS(=O)(=O)c2ccc(N)nc2)ccc1Cl | 2980

a = Cc1ccccc1-c1nc(NS(=O)(=O)c2cccc(N)n2)ccc1C(F)(F)F
b = CCc1ccccc1-c1nc(NS(=O)(=O)c2cccc(N3CCCC(C)(C(=O)O)C3)n2)ccc1C(F)(F)F (stereo not drawn)
// pick min by EC50: a , b The response must carry the label of the picked entry. b
(b: 1130 nM, a: 2300 nM)

I = Cc1ccc(C(F)(F)F)cc1-c1nc(NS(=O)(=O)c2ccnc(N)c2)ccc1Cl
II = Cc1cccc(C)c1-c1nc(NS(=O)(=O)c2cccc(N)n2)ccc1F
// pick min by EC50: I , II The response must carry the label of the picked entry. II

----------
- TARGET_OF_ASSAY: horseradish peroxidase (HRP) tagged delF508-CFTR (Homo sapiens, UniProt P13569, DEL508-508)
- Construct: expressed in transfected cells
- TEST_DESCRIPTION: Measurement of delF508-CFTR-HRP surface expression in CFBE41o- cells;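 on DelF508-CFTR-HRP Amax %: percent efficacy relative to reference corrector lumacaftor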
- Type: cell-based
- TEST_SETTINGS: delF508-CFTR-HRP surface expression, CFBE41o- cells; read-out: DelF508-CFTR-HRP Amax %
Structures can show the parent of a compound that is named as a salt.
OBSERVED_PROPERTY: Emax (%)

Look over these answered cases.
Nc1ccc(S(=O)(=O)Nc2ccc(Cl)c(-c3ccccc3C3CC3)n2)cn1 [Example 54] | 305
Cc1cccc(C)c1-c1nc(NS(=O)(=O)c2cccc(N3CCNCC3=O)n2)ccc1Cl [Example 192, hydrochloride] | 279
Cc1ccc(F)cc1-c1nc(NS(=O)(=O)c2cccc(N3CCC(C)(C(=O)O)CC3)n2)ccc1C(F)(F)F [Example 262] | 628
Cc1ccccc1-c1nc(NS(=O)(=O)c2cccc(N)n2)cc(C(F)(F)F)c1Cl [Example 22] | 490
O=S(=O)(Nc1ccc(C(F)(F)F)c(-c2cccc(F)c2Cl)n1)c1cccc(N2CC(O)C2)n1 [Example 230] | 513

P = CC1(C(=O)O)CCN(c2cccc(S(=O)(=O)Nc3ccc(Cl)c(-c4cccc(F)c4Cl)n3)n2)CC1 [Example 245]
Q = CC(=O)N1CCN(c2cccc(S(=O)(=O)Nc3ccc(C(F)(F)F)c(-c4cc(F)ccc4C)n3)n2)CC1 [Example 180]
R = Cc1cccc(C)c1-c1nc(NS(=O)(=O)c2cccnc2N)ccc1Cl [Example 74]
Hi! Can you put these in order of Emax, lowest number first? The response must list the labels following the requested ordering. R, P, Q

----------
- TARGET_OF_ASSAY: horseradish peroxidase (HRP) tagged delF508-CFTR (Homo sapiens, UniProt P13569, DEL508-508)
- Construct: expressed in transfected cells
- TEST_DESCRIPTION: Measurement of delF508-CFTR-HRP surface expression in CFBE41o- cells
- Assay type: cell-based
- TEST_SETTINGS: CFBE41o- cells; mean of at least two replicates; read-out: DelF508-CFTR-HRP EC50
OBSERVED_PROPERTY: EC50 (nM)

Look over these answered cases.
CCC1(C(=O)O)CCCN(c2cccc(S(=O)(=O)Nc3ccc(Cl)c(-c4ccccc4C)n3)n2)C1 (stereo not shown) | 2360
CCCc1ccccc1-c1nc(NS(=O)(=O)c2cccc(N3CCC[C@](C)(C(=O)O)C3)n2)ccc1C(F)(F)F | 1220
CCC[C@@H]1CCN(c2cccc(S(=O)(=O)Nc3ccc(C(F)(F)F)c(-c4ccccc4C)n3)n2)[C@H]2C[C@H](C(=O)O)[C@@H]12 (racemic) | 786

a = Cc1ccccc1-c1nc(NS(=O)(=O)c2cccc(N3CCC4(CC3)CC(C(=O)O)C4)n2)ccc1C(F)(F)F
b = CC1(C(=O)O)CCN(c2cc(S(=O)(=O)Nc3ccc(C(F)(F)F)c(-c4ccccc4C4CCC4)n3)ccn2)CC1
c = C[C@@]1(C(=O)O)CCCN(c2cccc(S(=O)(=O)Nc3ccc(C(F)(F)F)c(-c4ccccc4C4CC4)n3)n2)C1
Rank order required: EC50, descending. The response must list the labels following the requested ordering. a, b, c
(a: 2110 nM, b: 1360 nM, c: 576 nM)

I = Cc1c(F)cccc1-c1nc(NS(=O)(=O)c2cccc(N3CCC[C@@](C)(C(=O)O)C3)n2)ccc1C(F)(F)F
II = CC1(C(=O)O)CCCN(c2cccc(S(=O)(=O)Nc3ccc(Cl)c(-c4ccccc4C4CCC4)n3)n2)C1 (stereo not shown)
// pick min by EC50: I , II The response must carry the label of the picked entry. II

----------
- TARGET_OF_ASSAY: horseradish peroxidase (HRP) tagged delF508-CFTR (Homo sapiens, UniProt P13569, DEL508-508)
- Construct: expressed in transfected cells
- TEST_DESCRIPTION: Measurement of delF508-CFTR-HRP surface expression in CFBE41o- cells
- Type: cell-based
- TEST_SETTINGS: delF508-CFTR-HRP surface expression, CFBE41o- cells; read-out: DelF508-CFTR-HRP EC50
pEC50: −log10 of the molar value.
OBSERVED_PROPERTY: pEC50

Cc1c(F)cccc1-c1nc(NS(=O)(=O)c2cccc(N3CCN(C4CC4)CC3)n2)ccc1Cl | 5.70

a = COc1cc(NS(=O)(=O)c2cccc(N3CCNCC3)n2)nc(-c2c(C)cccc2C)c1
b = Cc1ccccc1-c1nc(NS(=O)(=O)c2cccc(N[C@@H]3COCC[C@H]3O)n2)ccc1C(F)(F)F
c = Cc1ccc(F)cc1-c1nc(NS(=O)(=O)c2cccc(N3CCN4C[C@@H](F)C[C@@H]4C3)n2)ccc1Cl
Hi! Can you put these in order of pEC50, lowest number first? The response must list the labels following the requested ordering. a, c, b
(a: 5.30, c: 5.70, b: 5.92)

----------
- TARGET_OF_ASSAY: horseradish peroxidase (HRP) tagged delF508-CFTR (Homo sapiens, UniProt P13569, DEL508-508)
- Construct: expressed in transfected cells
- TEST_DESCRIPTION: Measurement of delF508-CFTR-HRP surface expression in CFBE41o- cells;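 on DelF508-CFTR-HRP Amax %: percent efficacy relative to reference corrector lumacaftor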
- Assay type: cell-based
- TEST_SETTINGS: delF508-CFTR-HRP surface expression, CFBE41o- cells; read-out: DelF508-CFTR-HRP Amax %
Where a name gives a salt, the structure may show the parent alone.
OBSERVED_PROPERTY: Emax (%)

Look over these answered cases.
Cc1ccccc1-c1nc(NS(=O)(=O)c2cccc(N3CCNCC3)n2)ccc1C(F)(F)F [Example 161, (HCl Salt)] | 222
Cc1ccccc1-c1nc(NS(=O)(=O)c2cccc(N[C@@H]3CCNC[C@H]3O)n2)ccc1C(F)(F)F [Example 114, Hydrochloride] | 66.2
Nc1cccc(S(=O)(=O)Nc2ccc(Cl)c(-c3c(F)cccc3Cl)n2)n1 [Example 39] | 374
Cc1ccccc1-c1nc(NS(=O)(=O)c2cccc(N[C@@H]3COCC[C@@H]3O)n2)ccc1C(F)(F)F (racemic) [Example 280] | 844
CCc1ccccc1-c1nc(NS(=O)(=O)c2cccc(N3CCCC(C)(C(=O)O)C3)n2)ccc1C(F)(F)F (centres unmarked) [Example 371] | 962
Cc1ccccc1-c1nc(NS(=O)(=O)c2cccc(N3CCC4(CCC[C@H]4N)CC3)n2)ccc1C(F)(F)F [Example 304] | 421
Cc1ccccc1-c1nc(NS(=O)(=O)c2cccc(N3CCN(C)CC3)n2)ccc1C(F)(F)F [Example 189] | 414
Cc1cccc(C)c1-c1cc(Cl)cc(NS(=O)(=O)c2cccc(N)n2)n1 [Example 10] | 592
Cc1ccc(C#N)cc1-c1nc(NS(=O)(=O)c2cccc(N3CCNCC3)n2)ccc1C(F)(F)F [Example 311] | 179
Cc1ccccc1-c1nc(NS(=O)(=O)c2cccc(N3CCN[C@@H](CO)C3)n2)ccc1C(F)(F)F [Example 165, hydrochloride] | 401

I = Cc1ccccc1-c1nc(NS(=O)(=O)c2cccc(N3CCNC4(CC4)C3)n2)ccc1C(F)(F)F [Example 302]
II = Cc1ccccc1-c1nc(NS(=O)(=O)c2cccc(N3CCC(C)(C(=O)O)CC3)n2)ccc1Cl [Example 255]
III = CCc1ccccc1-c1nc(NS(=O)(=O)c2cccc(N3CCC[C@@H](C(=O)O)C3)n2)ccc1C(F)(F)F [Example 369]
IV = Cc1ccccc1-c1nc(NS(=O)(=O)c2cccc(N[C@@H]3CCNC[C@@H]3O)n2)ccc1C(F)(F)F (relative stereo) [Example 113, Hydrochloride]
Rank order required: Emax, descending. The response must list the labels following the requested ordering. III, I, II, IV
(III: 962%, I: 530%, II: 222%, IV: 72%)
